Cited source: patent US6479531B1

Target: CCKB receptor (Mus musculus)
Construct: The whole brains from male mice (CD1 22-25 g; Charles River) were removed; from tissue; host or cells: cerebral cortex membranes of male CD1 mice
Sequence (P56481 whole entry): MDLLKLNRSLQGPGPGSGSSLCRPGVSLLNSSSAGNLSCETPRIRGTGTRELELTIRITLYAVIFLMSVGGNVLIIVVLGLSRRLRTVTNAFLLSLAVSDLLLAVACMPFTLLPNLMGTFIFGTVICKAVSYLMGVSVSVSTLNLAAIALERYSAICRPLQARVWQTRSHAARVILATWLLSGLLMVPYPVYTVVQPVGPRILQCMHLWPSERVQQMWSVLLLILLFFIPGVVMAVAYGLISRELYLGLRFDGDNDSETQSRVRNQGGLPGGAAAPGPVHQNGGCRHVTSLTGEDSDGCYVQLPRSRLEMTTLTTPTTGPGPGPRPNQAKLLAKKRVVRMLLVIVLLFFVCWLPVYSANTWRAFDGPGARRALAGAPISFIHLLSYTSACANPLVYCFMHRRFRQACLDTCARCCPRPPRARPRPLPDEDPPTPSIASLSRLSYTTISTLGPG
Experiment: CCKB receptor radioligand binding assay in mouse cortical membranes
Conditions: [125I]-CCK8(S) 200 pM, 150 min at 21±3°, read-out: CCKB pKi (converted)
PROPERTY: Ki (nM)

The following molecules have reported results that may help.
[
  {
    "MOLECULE": "O=C(O)c1cccc(NC(=O)c2nc(C(C3CCCCC3)C3CCCCC3)[nH]c2CCC23CC4CC(CC(C4)C2)C3)c1",
    "Ki (nM)": 2140
  },
  {
    "MOLECULE": "O=C(O)c1cccc(NC(=O)c2cc(-c3ccc4ccccc4c3)[nH]c2CC2CCCCCC2)c1",
    "Ki (nM)": 1320
  },
  {
    "MOLECULE": "Cc1ccc(NC(=O)c2nc(-c3ccccc3C)[nH]c2CCC2CCCCC2)cc1C(=O)O",
    "Ki (nM)": 132
  },
  {
    "MOLECULE": "Cc1ccccc1-c1nc(C(=O)Nc2ccc(Cl)c(C(=O)O)c2)c(CCC23CC4CC(CC(C4)C2)C3)[nH]1",
    "Ki (nM)": 6.46
  },
  {
    "MOLECULE": "Cc1ccccc1-c1nc(C(=O)NC(C(=O)O)c2ccccc2)c(CCC23CC4CC(CC(C4)C2)C3)[nH]1 (stereo not drawn)",
    "Ki (nM)": 776
  }
]

[P] O=C(O)c1cccc(NC(=O)c2[nH]c(C3CC3)nc2CCC23CC4CC(CC(C4)C2)C3)c1
[Q] Cc1ccccc1-c1nc(NC(=O)Nc2cccc(C(=O)O)c2)c(CCC23CC4CC(CC(C4)C2)C3)[nH]1
[R] O=C(O)c1cccc(NC(=O)c2nc(C3CCCCC3)[nH]c2CCC2C3CC4CC(C3)CC2C4)c1 (stereo not drawn)
[S] O=C(O)c1cccc(NC(=O)c2nc(-c3ccccc3F)[nH]c2CCC23CC4CC(CC(C4)C2)C3)c1
[T] O=C(O)c1cc(NC(=O)c2nc(-c3ccc[nH]3)[nH]c2CC2CCCCCC2)cc(C(=O)O)c1
Exercise: Highest Ki first, then in falling order down to the smallest. List labels; respect the requested ordering.
Solution: T, P, S, Q, R
(T: 1860 nM, P: 776 nM, S: 331 nM, Q: 200 nM, R: 21.4 nM)

[I] O=C(O)c1cccc(NC(=O)c2[nH]c(C3CCCCCC3)nc2CCC23CC4CC(CC(C4)C2)C3)c1
[II] O=C(Nc1cc(CO)cc(CO)c1)c1[nH]c(-c2ccc3ccccc3c2)nc1CC1CCCCCC1
Exercise: Of I and II , whose reported Ki is the larger number? Mark your selection by writing its label.
Solution: II
(II: 4070 nM, I: 11.7 nM)
